B1: library; a variant is named by its letters at N, in order (parent)
chain: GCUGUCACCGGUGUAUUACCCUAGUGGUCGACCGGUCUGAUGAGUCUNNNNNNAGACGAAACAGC

Variants of: B1
assay.info: normalized RNA/DNA level with ligand (relative to sTRSVctl = 100) (log10 (% of sTRSVctl)); ligand: hypoxanthine (xanthine aptamer); higher = less ribozyme self-cleavage, higher mRNA level
condition.parameters: ligand concentration (+) RNA-Seq: 5 mM, HEK293T, reporter: mCherry (pCS4076), ligand present: yes
readout.kind: normalized RNA/DNA level with ligand (log10)

{"seq": "GCUGUCACCGGUGUAUUACCCUAGUGGUCGACCGGUCUGAUGAGUCUUUUGAGAGACGAAACAGC [UUUGAG]", "quantitative.readout": 1.88}
{"seq": "GCUGUCACCGGUGUAUUACCCUAGUGGUCGACCGGUCUGAUGAGUCUGCCUAAAGACGAAACAGC [GCCUAA]", "quantitative.readout": 1.94}
{"seq": "GCUGUCACCGGUGUAUUACCCUAGUGGUCGACCGGUCUGAUGAGUCUUCAACUAGACGAAACAGC [UCAACU]", "quantitative.readout": 1.96}
{"seq": "GCUGUCACCGGUGUAUUACCCUAGUGGUCGACCGGUCUGAUGAGUCUCUACCUAGACGAAACAGC [CUACCU]", "quantitative.readout": 1.96}
{"seq": "GCUGUCACCGGUGUAUUACCCUAGUGGUCGACCGGUCUGAUGAGUCUCUGGGUAGACGAAACAGC [CUGGGU]", "quantitative.readout": 2}
{"seq": "GCUGUCACCGGUGUAUUACCCUAGUGGUCGACCGGUCUGAUGAGUCUGCUACCAGACGAAACAGC [GCUACC]", "quantitative.readout": 1.91}
{"seq": "GCUGUCACCGGUGUAUUACCCUAGUGGUCGACCGGUCUGAUGAGUCUGGAAGGAGACGAAACAGC [GGAAGG]", "quantitative.readout": 1.81}
{"seq": "GCUGUCACCGGUGUAUUACCCUAGUGGUCGACCGGUCUGAUGAGUCUAUAAUAAGACGAAACAGC [AUAAUA]", "quantitative.readout": 1.89}
{"seq": "GCUGUCACCGGUGUAUUACCCUAGUGGUCGACCGGUCUGAUGAGUCUUAUCAAAGACGAAACAGC [UAUCAA]", "quantitative.readout": 1.91}
{"seq": "GCUGUCACCGGUGUAUUACCCUAGUGGUCGACCGGUCUGAUGAGUCUACCGAAAGACGAAACAGC [ACCGAA]", "quantitative.readout": 1.9}
{"seq": "GCUGUCACCGGUGUAUUACCCUAGUGGUCGACCGGUCUGAUGAGUCUAGGAACAGACGAAACAGC [AGGAAC]", "quantitative.readout": 1.91}
{"seq": "GCUGUCACCGGUGUAUUACCCUAGUGGUCGACCGGUCUGAUGAGUCUCCAGCAAGACGAAACAGC [CCAGCA]", "quantitative.readout": 1.97}
{"seq": "GCUGUCACCGGUGUAUUACCCUAGUGGUCGACCGGUCUGAUGAGUCUUCCAAUAGACGAAACAGC [UCCAAU]", "quantitative.readout": 1.94}
{"seq": "GCUGUCACCGGUGUAUUACCCUAGUGGUCGACCGGUCUGAUGAGUCUAAAUCUAGACGAAACAGC [AAAUCU]", "quantitative.readout": 1.94}
{"seq": "GCUGUCACCGGUGUAUUACCCUAGUGGUCGACCGGUCUGAUGAGUCUCGGGACAGACGAAACAGC [CGGGAC]", "quantitative.readout": 1.96}
{"seq": "GCUGUCACCGGUGUAUUACCCUAGUGGUCGACCGGUCUGAUGAGUCUGAAUAGAGACGAAACAGC [GAAUAG]", "quantitative.readout": 1.79}
{"seq": "GCUGUCACCGGUGUAUUACCCUAGUGGUCGACCGGUCUGAUGAGUCUCCUACAAGACGAAACAGC [CCUACA]", "quantitative.readout": 1.97}
{"seq": "GCUGUCACCGGUGUAUUACCCUAGUGGUCGACCGGUCUGAUGAGUCUGACCCUAGACGAAACAGC [GACCCU]", "quantitative.readout": 1.99}

Source of measurements: the supplement of paper PMC6757056
